Parameter: Binding MFI. Scope: all listed entries.
Molecular target: T1, Biotinylated Human VEGF165 (ACROBiosystems, Cat. No. VE5-H82Q0) (human, UniProt P15692-4 27-191, biotinylated (site not stated))
T1 construct: Bought reagent; also called Human VEGF-Bio; human VEGF165-Bio
T1 sequence (P15692 other isoform, or with tags, fused parts or gaps limits assumed): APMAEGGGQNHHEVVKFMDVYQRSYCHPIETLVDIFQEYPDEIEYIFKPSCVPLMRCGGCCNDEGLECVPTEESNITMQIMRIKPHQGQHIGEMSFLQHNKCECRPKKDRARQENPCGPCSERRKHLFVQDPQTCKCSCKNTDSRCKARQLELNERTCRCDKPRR
Assay: flow cytometry, yeast-displayed clone, 1 nM Human VEGF165-Biotin
Measured attribute: Binding MFI (MFI)

- YC43B1, affinity-matured mutant clone of Ab1910VE9 displayed on yeast (VHH, also called antibody number Ab1910VE24) VHH: EVQLVESGGGLVQPGGSLRLSCAASGSTSDIVSMAWYRQAPGKERELVSAVFAEDWRYVEDSVKGRFTISRDNSKNTVYLQMNSLRAEDTAVYYCNVRLRITDWYSRERLDYWGQGTLVTVSS: 503
- YC43H2, affinity-matured mutant clone of Ab1910VE9 displayed on yeast (VHH, also called antibody number Ab1910VE23) VHH: EVQLVESGGGLVQPGGSLRLSCAASGSTSDIVSMAWYRQAPGKERELVSAVFAEDWRYVEDSVKGRFTISRDNSKNTVYLQMNSLRAEDTAVYYCNVRLRIPHQWRTERLDYWGQGTLVTVSS: 358
- Ab1910VE9 parental sequence displayed on the surface of yeast (VHH, also called clone number Ab1910VE9) VHH: EVQLVESGGGLVQPGGSLRLSCAASGSTSDIVSMAWYRQAPGKERELVSAVFAEDWRYVEDSVKGRFTISRDNSKNTVYLQMNSLRAEDTAVYYCNVRLRITDERRRERLDYWGQGTLVTVSS: 42.1
- YC41D1, affinity-matured mutant clone of Ab1910VE9 displayed on yeast (VHH, also called antibody number Ab1910VE21) VHH: EVQLVESGGGLVQPGGSLRLSCAASGSTSDIVSMAWYRQAPGKERELVSAVLAPGWSYVEDSVKGRFTISRDNSKNTVYLQMNSLRAEDTAVYYCNVRLRITDERRRERLDYWGQGTLVTVSS: 337
